Listing of entries alongside the reported TGI.
Tested on: OVCAR-5 ovarian
Assay: NCI tumour cell line growth inhibition, 48 h
MEASURED PROPERTY: TGI

COMPOUND	EXPERIMENTAL SYSTEM	MEASURED PROPERTY	MEASURED
O=CC(OC(=O)c1ccccc1)C(OC(=O)c1ccccc1)C(COC(c1ccccc1)(c1ccccc1)c1ccccc1)OC(=O)c1ccccc1 (stereo not given)	OVCAR-5 ovarian	TGI	43.9 µM
CCC(=O)OC1CCn2c1nc1c2C(=O)C(C)=C(NC(C)=O)C1=O (stereo not given)	OVCAR-5 ovarian	TGI	3.39 µM
CCc1cccc(C(C)C)c1NC(=O)CC1Sc2ccccc2NC1=O (stereo not given)	OVCAR-5 ovarian	TGI	> 100 µM
N/C(=N\N=C\c1cc2ccccc2s1)c1cnccn1	OVCAR-5 ovarian	TGI	> 100 µM
O=C(NC1CCN(Cc2ccccc2)CC1)c1cc(-c2cccnc2)nc2ccc(Cl)cc12	OVCAR-5 ovarian	TGI	> 100 µM
